Data credit: patent US5495032A

Test system: S. mariescens FPOR 8733
Assay: MIC, agar dilution method
Assay type: cell-based
Details: 18 h, 18 hours at 35° C.
Counter-ions that a name gives are not always drawn.
observation type: MIC

For every item in the list below, what is its measured MIC?
1. CN(C)CC(=O)Nc1c(O)c2c(c(N(C)C)c1Cl)CC1CC3[C@H](N(C)C)C(O)=C(C(N)=O)C(=O)[C@@]3(O)C(O)=C1C2=O (stereo partly drawn)
2. CN(C)[C@@H]1C(O)=C(C(N)=O)C(=O)[C@@]2(O)C(O)=C3C(=O)c4c(O)cccc4[C@@](C)(O)[C@H]3C[C@@H]12
3. CN(C)[C@@H]1C(O)=C(C(N)=O)C(=O)[C@@]2(O)C(O)=C3C(=O)c4c(cc(Cl)c(NC(=O)CCl)c4O)CC3CC12 (stereo partly drawn) [K, hydrochloride]

["> 32 µg/mL", "> 32 µg/mL", "> 32 µg/mL"]
